src = patent US20250186594A1

Reported koff values are given for each entry in this list.
Target: T1, Fc fused human IL-18Rα (human, UniProt Q13478 19-329, limits assumed)
T1 construct: also called IL-18Rα monomer; human IL-18 receptor alpha (CD218a); not shown: Fc
T1 sequence (looked up): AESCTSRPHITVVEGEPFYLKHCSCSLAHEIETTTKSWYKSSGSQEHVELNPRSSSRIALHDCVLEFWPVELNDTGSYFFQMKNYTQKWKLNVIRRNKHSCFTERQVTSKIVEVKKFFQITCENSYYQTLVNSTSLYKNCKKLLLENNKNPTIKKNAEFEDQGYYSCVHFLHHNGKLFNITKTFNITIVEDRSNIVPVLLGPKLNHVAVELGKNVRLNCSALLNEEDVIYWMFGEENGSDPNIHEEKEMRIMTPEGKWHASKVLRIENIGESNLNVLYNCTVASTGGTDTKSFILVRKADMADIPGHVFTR
Assay: SPR, Fc-IL-18Rα captured, 1:1 fit
Write the answer as a number in s⁻¹, unit excluded.

Name the recorded koff for IL-18 variant SEQ ID NO: 57 (E6K, C38S, K53A) (ligand) YFGKLKSKLSVIRNLNDQVLFIDQGNRPLFEDMTDSDSRDNAPRTIFIISMYADSQPRGMAVTISVKCEKISTLSCENKIISFKEMNPPDNIKDTKSDIIFFQRSVPGHDNKMQFESSSYEGYFLACEKERDLFKLILKKEDELGDRSIMFTVQNED .
0.0133

Name the recorded koff for IL-18 variant SEQ ID NO: 30 (E6K, V11I, C38A, K53A, T63A, C76A, C127A) (ligand) YFGKLKSKLSIIRNLNDQVLFIDQGNRPLFEDMTDSDARDNAPRTIFIISMYADSQPRGMAVAISVKCEKISTLSAENKIISFKEMNPPDNIKDTKSDIIFFQRSVPGHDNKMQFESSSYEGYFLAAEKERDLFKLILKKEDELGDRSIMFTVQNED .
0.0536

Name the recorded koff for IL-18 variant SEQ ID NO: 59 (E6K, C38A, K53A) (ligand) YFGKLKSKLSVIRNLNDQVLFIDQGNRPLFEDMTDSDARDNAPRTIFIISMYADSQPRGMAVTISVKCEKISTLSCENKIISFKEMNPPDNIKDTKSDIIFFQRSVPGHDNKMQFESSSYEGYFLACEKERDLFKLILKKEDELGDRSIMFTVQNED .
0.0165
